assay: Quantitative High-Throughput drug screen in 47 multiple myeloma cell lines against the NCATS MIPE library collection: KMS21BM_JCRB cell viability assay (AID 1918974); conditions: ATP luminescence, 48 h
Inconclusive results are not listed. Active and inactive are the calls of the source. Calls come from the whole dose curve; as a rule, active = well fitted cell-killing curve with a large enough effect; inconclusive = small, poorly fitted or top-dose-only effect, or effect the other way; inactive = no such curve, though single readings can be large or run the other way.
// allowed return values: active, inactive

For orientation, consider the following solved cases.
{"molecule": "O=C(Nc1nnc(-c2ccco2)o1)c1cc(-c2ccccc2)nc2ccccc12", "assignedLabel": "active"}
{"molecule": "CC(=O)O[C@H]1C[C@@H]2CC[C@H]3[C@H]4C[C@H]([N+]5(C)CCCCC5)[C@@H](OC(C)=O)[C@@]4(C)CC[C@@H]3[C@@]2(C)C[C@H]1N1CCCCC1", "assignedLabel": "inactive"}
{"molecule": "NC(=O)N1CCC(CC(=O)N2CCC([C@H]3c4ncc(Br)cc4CCc4cc(Cl)cc(Br)c43)CC2)CC1", "assignedLabel": "active"}

GET /call?item= `O=C(O)c1ccc(Nc2ncc3c(n2)-c2ccc(Cl)cc2C(c2c(F)cccc2F)=NC3)cc1` returns the recorded outcome of this test.
active

* * *

Test: qHTS of pediatric cancer cell lines to identify multiple opportunities for drug repurposing: Primary screen for BT-37 cells (AID 1347094)
Settings: BT-37 viability, CellTiter-Glo luminescence, 48 h; series mostly up to 57.3 µM
Procedure: Drug repurposing or repositioning has been offered as a strategy for drug development in oncology programs. This approach has special potential for childhood cancers and other rare or orphan diseases, where the expected return on new drug development has been a disincentive to pharmaceuticals. […] We employed a titration-based paradigm (quantitative high-throughput screening or qHTS), where all compounds were tested at multiple concentrations for their effect on cell viability. […]
Records with an inconclusive call do not appear. Activity calls are given as the source filed them. The call rests on the fitted dose curve; in most records, active means well fitted cell-killing curve with a large enough effect; inconclusive means small, poorly fitted or top-dose-only effect; inactive means flat fitted curve, though single readings scatter.
// allowed return values: 1 (yes) = active, 0 (no) = inactive

For orientation, consider the following solved cases.
{"compound": "CC(Oc1ccc(O)cc1)(P(=O)(O)O)P(=O)(O)O", "assignedLabel": "0 (no)"}
{"compound": "CO[C@@H]1[C@@H](O)[C@H](O)[C@@H](n2c3c(Cl)cccc3c3c4c(c5c6cccc(Cl)c6[nH]c5c32)C(=O)NC4=O)O[C@@H]1CO", "assignedLabel": "1 (yes)"}
{"compound": "C=C(C)[C@@H]1CC[C@]2(C(=O)O)CC[C@]3(C)[C@H](CC[C@@H]4[C@@]5(C)CC[C@H](O)C(C)(C)[C@@H]5CC[C@]43C)[C@@H]12", "assignedLabel": "0 (no)"}
{"compound": "CCc1nc(-c2cccc(C)c2)c(-c2ccnc(NC(=O)c3ccccc3)c2)s1", "assignedLabel": "1 (yes)"}

GET /call?item= `CC(C=CC=C(C)C=CC1=C(C)CCCC1(C)C)=CC=CC=C(C)C=CC=C(C)C=CC1=C(C)CCCC1(C)C` returns the recorded outcome of this test.
0 (no)

GET /call?item= COc1cc(C)c(Sc2cnc(NC(=O)c3ccc(CNC(C)C(C)(C)C)cc3)s2)cc1C(=O)N1CCN(C(C)=O)CC1 (configuration not stated) returns the recorded outcome of this test.
1 (yes)

GET /call?item= `CCOc1cc2c(c(F)c1OCC)C(=N)N(CC(=O)c1cc(N3CCOCC3)c(OC)c(C(C)(C)C)c1)C2` returns the recorded outcome of this test.
1 (yes)

GET /call?item= `O=C(Nc1cc2cc[nH]c2cn1)c1ccccc1` returns the recorded outcome of this test.
1 (yes)

GET /call?item= CC(N[C@H]1CCCC[C@H]1NC(=O)c1ccc(Cl)cc1)c1cccc2ccccc12 (some centres not stated) returns the recorded outcome of this test.
1 (yes)
